Target: Integrin alpha-4/beta-1 (Homo sapiens, UniProt P05556+P13612)
Sequence (P05556 whole entry): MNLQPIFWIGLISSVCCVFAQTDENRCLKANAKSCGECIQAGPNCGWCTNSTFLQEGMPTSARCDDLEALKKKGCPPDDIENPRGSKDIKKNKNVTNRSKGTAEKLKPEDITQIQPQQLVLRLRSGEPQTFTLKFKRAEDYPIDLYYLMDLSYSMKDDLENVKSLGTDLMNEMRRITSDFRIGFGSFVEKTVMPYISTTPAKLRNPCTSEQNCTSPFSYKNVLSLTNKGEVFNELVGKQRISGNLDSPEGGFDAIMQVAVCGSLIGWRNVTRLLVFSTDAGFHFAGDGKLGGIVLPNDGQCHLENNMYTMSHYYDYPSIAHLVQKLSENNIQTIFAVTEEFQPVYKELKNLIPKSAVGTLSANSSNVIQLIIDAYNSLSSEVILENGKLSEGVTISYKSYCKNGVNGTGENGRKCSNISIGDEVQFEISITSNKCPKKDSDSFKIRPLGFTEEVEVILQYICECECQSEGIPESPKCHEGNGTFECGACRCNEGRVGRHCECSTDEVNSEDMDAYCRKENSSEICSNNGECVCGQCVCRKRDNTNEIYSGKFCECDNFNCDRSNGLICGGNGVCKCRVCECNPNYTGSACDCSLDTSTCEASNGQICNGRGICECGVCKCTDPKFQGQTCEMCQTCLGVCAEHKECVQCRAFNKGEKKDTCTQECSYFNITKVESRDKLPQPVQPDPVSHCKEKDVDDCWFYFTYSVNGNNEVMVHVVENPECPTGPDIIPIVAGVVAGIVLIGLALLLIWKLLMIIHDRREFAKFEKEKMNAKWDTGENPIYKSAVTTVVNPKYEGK
Sequence (P13612 whole entry): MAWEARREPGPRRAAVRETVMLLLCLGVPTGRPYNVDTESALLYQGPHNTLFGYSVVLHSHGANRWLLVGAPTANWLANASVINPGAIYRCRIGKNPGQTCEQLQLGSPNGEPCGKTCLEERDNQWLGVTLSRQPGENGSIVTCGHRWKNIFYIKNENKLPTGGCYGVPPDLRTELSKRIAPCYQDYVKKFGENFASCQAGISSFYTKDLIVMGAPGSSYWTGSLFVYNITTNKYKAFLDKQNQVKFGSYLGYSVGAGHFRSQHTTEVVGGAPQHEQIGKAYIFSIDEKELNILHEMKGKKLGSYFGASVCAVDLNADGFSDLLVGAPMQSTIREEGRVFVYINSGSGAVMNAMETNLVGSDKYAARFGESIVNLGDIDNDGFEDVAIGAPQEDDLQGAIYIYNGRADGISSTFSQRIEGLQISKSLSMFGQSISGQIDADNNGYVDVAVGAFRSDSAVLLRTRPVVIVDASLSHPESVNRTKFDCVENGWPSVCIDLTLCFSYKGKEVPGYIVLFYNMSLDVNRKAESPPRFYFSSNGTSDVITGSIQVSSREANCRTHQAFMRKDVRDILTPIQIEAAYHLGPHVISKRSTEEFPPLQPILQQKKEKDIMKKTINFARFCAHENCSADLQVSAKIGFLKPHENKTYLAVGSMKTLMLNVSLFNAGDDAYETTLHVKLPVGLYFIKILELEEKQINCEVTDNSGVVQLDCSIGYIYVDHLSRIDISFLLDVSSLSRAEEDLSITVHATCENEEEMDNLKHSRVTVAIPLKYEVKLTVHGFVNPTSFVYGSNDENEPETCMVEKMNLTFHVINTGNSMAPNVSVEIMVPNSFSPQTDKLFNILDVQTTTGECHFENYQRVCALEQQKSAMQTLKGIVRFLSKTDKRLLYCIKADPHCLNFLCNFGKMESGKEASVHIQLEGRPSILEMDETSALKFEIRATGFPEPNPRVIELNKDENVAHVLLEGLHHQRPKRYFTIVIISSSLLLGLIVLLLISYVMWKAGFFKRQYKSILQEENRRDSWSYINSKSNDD
Test: Inhibitory binding concentration determined against VCAM/VLA-4 in Ramos
Format: protein-complex assay
reported endpoint: IC50 (nM)

For orientation, consider the following solved cases.
O=C(NCCC1(C(=O)N[C@@H](Cc2ccc(NC(=O)c3c(Cl)cccc3Cl)cc2)C(=O)O)CCCC1)Nc1ccccc1 :: 914
COCCC1(C(=O)N[C@@H](Cc2ccc(NC(=O)c3c(Cl)cccc3Cl)cc2)C(=O)O)CCC1 :: 17
Cn1nnnc1-c1cccc(CC2(C(=O)N[C@@H](Cc3ccc(NC(=O)c4c(Cl)cccc4Cl)cc3)C(=O)O)CCCC2)c1 :: 100
Cn1nnnc1-c1ccc(CC2(C(=O)N[C@@H](Cc3ccc(NC(=O)c4c(Cl)cccc4Cl)cc3)C(=O)O)CCCC2)cc1 :: 19
COCC1(C(=O)N[C@@H](Cc2ccc(NC(=O)c3c(Cl)cccc3Cl)cc2)C(=O)O)CCCC1 :: 134
C=CCCC1(C(=O)N[C@@H](Cc2ccc(NC(=O)c3c(Cl)cccc3Cl)cc2)C(=O)O)CCCC1 :: 64
COCCCCC1(C(=O)N[C@@H](Cc2ccc(NC(=O)c3c(Cl)cccc3Cl)cc2)C(=O)O)CCCC1 :: 29
COCCC1(C(=O)N[C@@H](Cc2ccc(NC(=O)c3c(Cl)cccc3Cl)cc2)C(=O)O)CCCC1 :: 12
COc1ccc(CC2(C(=O)N[C@@H](Cc3ccc(NC(=O)c4c(Cl)cccc4Cl)cc3)C(=O)O)CCCC2)cc1OC :: 95
CC(=O)CCCC1(C(=O)N[C@@H](Cc2ccc(NC(=O)c3c(Cl)cccc3Cl)cc2)C(=O)O)CCCC1 :: 350

(1) Cn1nnnc1-c1ccc(CC2(C(=O)N[C@@H](Cc3ccc(NC(=O)c4c(Cl)cccc4Cl)cc3)C(=O)O)CCCCC2)cc1
(2) COc1ccc(CC2(C(=O)N[C@@H](Cc3ccc(NC(=O)c4c(Cl)cccc4Cl)cc3)C(=O)O)CCCC2)cc1
Req: Compare the recorded IC50 of 1 and 2 ; state which is larger. Pick one and reply with its label.
Resp: 1
(1: 61 nM, 2: 37 nM)

---

Biological target: Integrin alpha-4/beta-1 (Homo sapiens, UniProt P05556+P13612)
Assay: Inhibitory binding concentration determined against VCAM/VLA-4 in ELISA
Type: protein-complex assay
reported endpoint: IC50 (nM)

COCCC1(C(=O)N[C@@H](Cc2ccc(NC(=O)c3c(Cl)cccc3Cl)cc2)C(=O)O)CCC1 :: 0.61

(P) [N-]=[N+]=NCCCCC1(C(=O)N[C@@H](Cc2ccc(NC(=O)c3c(Cl)cccc3Cl)cc2)C(=O)O)CCCC1
(Q) COc1ccc(CC2(C(=O)N[C@@H](Cc3ccc(NC(=O)c4c(Cl)cccc4Cl)cc3)C(=O)O)CCCC2)cc1OC
Req: Compare the recorded IC50 of P and Q ; state which is larger. Pick one and reply with its label.
Resp: P
(P: 1.64 nM, Q: 0.8 nM)
